Recorded values, source patent US20220395553A1.

Each record here notes measured IC50 for Inhibition of CXCR4 Activation (β-Arrestin recruitment).
System: ProLink tagged human CXCR4 (C2C12 CXCR4 β-Arrestin cell line) (human, UniProt P61073 1-352)
Sequence (P61073 whole entry): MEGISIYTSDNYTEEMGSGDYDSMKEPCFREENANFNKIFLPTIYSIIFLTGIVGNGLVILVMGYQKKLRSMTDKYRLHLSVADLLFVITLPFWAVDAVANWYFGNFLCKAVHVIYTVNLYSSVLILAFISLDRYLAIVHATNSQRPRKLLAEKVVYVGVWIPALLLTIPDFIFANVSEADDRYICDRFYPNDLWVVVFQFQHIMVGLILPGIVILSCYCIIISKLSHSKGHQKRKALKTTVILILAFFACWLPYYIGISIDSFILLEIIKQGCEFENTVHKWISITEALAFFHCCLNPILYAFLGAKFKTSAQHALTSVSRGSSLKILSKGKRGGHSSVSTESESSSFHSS
Assay info: cell-based or functional assay
Square brackets hold non-standard residues; d marks the D form. Ends that are not written are not given here.

Binder	Val
SVRSSLRPYTK [SEQ ID NO: 15]	> 1000 nM
LREYHHS[dA]RSSLRPYTK [SEQ ID NO: 32]	> 1000 nM

Continue with the next binder.
Given LRDYHHSVRSSLRPYTK [SEQ ID NO: 36] , state its recorded IC50 for Inhibition of CXCR4 Activation (β-Arrestin recruitment). > 1000 nM
